- assay explanation: Growth inhibition, sulforhodamine B (SRB) assay, A431
- Assay type: cell-based
- condition description: human, A431 cervix carcinoma cells, A431, 96 hr incubation, tested as salts, read-out: Cytotoxicity - IC50 A431
Parameter IC50 at 96 h: see the listing below.

{"compound": "O=C(CCN1CCCC1)Nc1ccc2c(NC3CCCCC3)c3ccc(NC(=O)CCN4CCCC4)cc3nc2c1", "units of measure": "µM", "result qualifier": "=", "IC50 at 96 h": 2.5}
{"compound": "O=C(CCN1CCCC1)Nc1ccc2c(NCc3cccnc3)c3ccc(NC(=O)CCN4CCCC4)cc3nc2c1", "units of measure": "µM", "result qualifier": ">", "IC50 at 96 h": 25}
{"compound": "O=C(CCN1CCCC1)Nc1ccc(Nc2c3ccc(NC(=O)CCN4CCCC4)cc3nc3cc(NC(=O)CCN4CCCC4)ccc23)cc1", "units of measure": "µM", "result qualifier": "=", "IC50 at 96 h": 20}
{"compound": "CN(C)CCNc1c2ccc(NC(=O)CCN3CCCC3)cc2nc2cc(NC(=O)CCN3CCCC3)ccc12", "units of measure": "µM", "result qualifier": ">", "IC50 at 96 h": 25}
{"compound": "O=C(CCN1CCCC1)Nc1ccc2c(NCCN3CCCCC3)c3ccc(NC(=O)CCN4CCCC4)cc3nc2c1", "units of measure": "µM", "result qualifier": "=", "IC50 at 96 h": 11.2}
{"compound": "CN1CCN(CCC(=O)Nc2ccc3[nH]c4ccc(NC(=O)CCN5CCN(C)CC5)cc4c(=O)c3c2)CC1", "units of measure": "µM", "result qualifier": ">", "IC50 at 96 h": 25}
{"compound": "O=C(CCN1CCCC1)Nc1ccc2c(NC3CCCCCC3)c3ccc(NC(=O)CCN4CCCC4)cc3nc2c1", "units of measure": "µM", "result qualifier": "=", "IC50 at 96 h": 3.2}
{"compound": "Nc1ccccc1Nc1c2ccc(NC(=O)CCN3CCCC3)cc2nc2cc(NC(=O)CCN3CCCC3)ccc12", "units of measure": "µM", "result qualifier": "=", "IC50 at 96 h": 7.1}
{"compound": "O=C(CCN1CCCC1)Nc1ccc2c(Nc3ccc(F)cc3)c3ccc(NC(=O)CCN4CCCC4)cc3nc2c1", "units of measure": "µM", "result qualifier": "=", "IC50 at 96 h": 2.5}
{"compound": "CSc1ccccc1Nc1c2ccc(NC(=O)CCN3CCCC3)cc2nc2cc(NC(=O)CCN3CCCC3)ccc12", "units of measure": "µM", "result qualifier": "=", "IC50 at 96 h": 2.5}
{"compound": "CSc1cccc(Nc2c3ccc(NC(=O)CCN4CCCC4)cc3nc3cc(NC(=O)CCN4CCCC4)ccc23)c1", "units of measure": "µM", "result qualifier": "=", "IC50 at 96 h": 1.3}
{"compound": "O=C(CCN1CCCC1)Nc1ccc2c(NC3CC3)c3ccc(NC(=O)CCN4CCCC4)cc3nc2c1", "units of measure": "µM", "result qualifier": ">", "IC50 at 96 h": 25}
{"compound": "Nc1cccc(Nc2c3ccc(NC(=O)CCN4CCCC4)cc3nc3cc(NC(=O)CCN4CCCC4)ccc23)c1", "units of measure": "µM", "result qualifier": "=", "IC50 at 96 h": 12.6}
{"compound": "CN1CCCC1CCNc1c2ccc(NC(=O)CCN3CCCC3)cc2nc2cc(NC(=O)CCN3CCCC3)ccc12 (stereo not drawn)", "units of measure": "µM", "result qualifier": "≥", "IC50 at 96 h": 25}
{"compound": "CC(=O)Nc1cccc(Nc2c3ccc(NC(=O)CCN4CCCC4)cc3nc3cc(NC(=O)CCN4CCCC4)ccc23)c1", "units of measure": "µM", "result qualifier": ">", "IC50 at 96 h": 25}

---

- assay explanation: Growth inhibition, sulforhodamine B (SRB) assay, A2780
- Assay type: cell-based
- condition description: human, A2780 ovarian carcinoma cells, A2780, 96 hr incubation, tested as salts, read-out: Cytotoxicity - IC50 A2780
Each item that follows carries a reported IC50 at 96 h.

{"molecule": "CC(=O)c1ccc(Nc2c3ccc(NC(=O)CCN4CCCC4)cc3nc3cc(NC(=O)CCN4CCCC4)ccc23)cc1 [JH-ACI-90]", "result qualifier": "=", "IC50 at 96 h (µM)": 3.2}
{"molecule": "CN(C)c1cccc(Nc2c3ccc(NC(=O)CCN4CCCC4)cc3nc3cc(NC(=O)CCN4CCCC4)ccc23)c1 [JH-ACI-78]", "result qualifier": "=", "IC50 at 96 h (µM)": 7.9}
{"molecule": "O=C(CCN1CCCC1)Nc1ccc(Nc2c3ccc(NC(=O)CCN4CCCC4)cc3nc3cc(NC(=O)CCN4CCCC4)ccc23)cc1 [JC-ACI-9]", "result qualifier": ">", "IC50 at 96 h (µM)": 25}
{"molecule": "O=C(CCN1CCCC1)Nc1ccc2c(NC3CC3)c3ccc(NC(=O)CCN4CCCC4)cc3nc2c1 [JM-ACI-14]", "result qualifier": "=", "IC50 at 96 h (µM)": 19}
{"molecule": "O=C(CCN1CCCC1)Nc1ccc2nc3ccc(NC(=O)CCN4CCCC4)cc3c(O)c2c1 [BR-ACO-9]", "result qualifier": ">", "IC50 at 96 h (µM)": 25}
{"molecule": "CN(C)CCCNc1c2ccc(NC(=O)CCN3CCCC3)cc2nc2cc(NC(=O)CCN3CCCC3)ccc12 [JH-ACI-65]", "result qualifier": ">", "IC50 at 96 h (µM)": 25}
{"molecule": "CC1CCN(CCC(=O)Nc2ccc3c(=O)c4ccc(NC(=O)CCN5CCC(C)CC5)cc4[nH]c3c2)CC1 [BR-ACO-33]", "result qualifier": "=", "IC50 at 96 h (µM)": 3}

The reported measurements were obtained from patent US7300930B2.
